# system: C-X-C chemokine receptor type 6 (Homo sapiens) (UniProt O00574)
# Sequence (O00574 whole entry, looked up): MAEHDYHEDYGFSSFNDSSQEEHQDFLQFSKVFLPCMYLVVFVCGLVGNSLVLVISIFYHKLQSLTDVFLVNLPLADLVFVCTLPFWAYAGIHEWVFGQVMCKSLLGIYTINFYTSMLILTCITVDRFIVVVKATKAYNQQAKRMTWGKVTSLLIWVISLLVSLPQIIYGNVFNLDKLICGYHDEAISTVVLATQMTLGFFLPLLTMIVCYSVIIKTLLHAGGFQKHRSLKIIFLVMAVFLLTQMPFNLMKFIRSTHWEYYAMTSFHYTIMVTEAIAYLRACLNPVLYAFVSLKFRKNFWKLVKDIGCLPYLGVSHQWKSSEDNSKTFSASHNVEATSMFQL
# measurement.description: potency against CXCR6 with APJ panel – cell-based, beta-arrestin, DiscoveRx, uHTS hits, dose response (AID 624129)
# measurement.conditions: CXCR6 beta-arrestin (DiscoveRx) antagonist cell assay, CXCR6, run 2, dose range 2
pIC50: −log10 of the molar value.
Please enter Condition met where pIC50 is greater than or equal to 5, and Condition not met where it is lower.

Asked: Given the entry COc1ccc(/C=C/c2ccc3cccc(O)c3n2)c(OC)c1OC , answer whether its pIC50 meets or surpasses 5.
Given back: Condition met

Asked: Given the entry O=Cc1s/c(=N\S(=O)(=O)c2ccccc2)n(CCCCl)c1Cl , answer whether its pIC50 meets or surpasses 5.
Given back: Condition met

Asked: Given the entry CCN(CC)CCn1c(N)c(S(=O)(=O)c2ccccc2)c2nc3ccccc3nc21 , answer whether its pIC50 meets or surpasses 5.
Given back: Condition not met

Asked: Given the entry FC(F)(F)c1cnc(NNC(=S)Nc2cccnc2)c(Cl)c1 , answer whether its pIC50 meets or surpasses 5.
Given back: Condition not met

Asked: Given the entry COc1cc(/C=C/C(O)=C/C(=O)/C=C/c2ccc(O)cc2)ccc1O , answer whether its pIC50 meets or surpasses 5.
Given back: Condition not met

Asked: Given the entry CCOc1cc(/C=C2\N=C(SC)SC2=O)cc([N+](=O)[O-])c1OC(C)=O , answer whether its pIC50 meets or surpasses 5.
Given back: Condition not met

Asked: Given the entry Cn1cnc([N+](=O)[O-])c1S(=O)(=O)Oc1ccccc1 , answer whether its pIC50 meets or surpasses 5.
Given back: Condition not met

Asked: Given the entry O=C1C=CC2C3C(=O)N(c4ccccc4)C(=O)C3C1N2Cc1ccccc1 (stereo not drawn) , answer whether its pIC50 meets or surpasses 5.
Given back: Condition not met

Asked: Given the entry Cc1nnc(Sc2cc(NCCCO)c([N+](=O)[O-])c3nonc23)s1 , answer whether its pIC50 meets or surpasses 5.
Given back: Condition met

Asked: Given the entry O=C(NC(=S)Nc1ccccc1O)c1cncc(Br)c1 , answer whether its pIC50 meets or surpasses 5.
Given back: Condition not met

Asked: Given the entry CCn1c(Cl)c(C=O)s/c1=N\S(=O)(=O)c1ccccc1 , answer whether its pIC50 meets or surpasses 5.
Given back: Condition met

Asked: Given the entry Nc1nc(N)c2c(ccc3c2ccn3Cc2cccc([N+](=O)[O-])c2)n1 , answer whether its pIC50 meets or surpasses 5.
Given back: Condition not met

Asked: Given the entry CCCC(=O)OCCNc1cc(Sc2nccn2C)c2nonc2c1[N+](=O)[O-] , answer whether its pIC50 meets or surpasses 5.
Given back: Condition met

Asked: Given the entry CC(=O)/C(=N\Nc1ccc(Cl)cc1Cl)Sc1cccc2cccnc12 , answer whether its pIC50 meets or surpasses 5.
Given back: Condition met

Asked: Given the entry COc1cc(/C=C2\SC(=O)N(c3ccc(Cl)cc3)C2=O)cc([N+](=O)[O-])c1O , answer whether its pIC50 meets or surpasses 5.
Given back: Condition not met

Asked: Given the entry Cc1ccc(-n2c(SCCN)nnc2-c2cccc(C)c2)cc1 , answer whether its pIC50 meets or surpasses 5.
Given back: Condition not met

====

# system: C-X-C chemokine receptor type 6 (Homo sapiens)
# measurement.description: potency against CXCR6 with APJ panel – cell-based, beta-arrestin, DiscoveRx, uHTS hits, dose response (AID 624129)
# measurement.conditions: CXCR6 beta-arrestin (DiscoveRx) antagonist cell assay, CXCR6, dose range 1, mean IC50 across replicates
Field: pIC50. Provide a value for each of the molecules that follow.
The read-out pIC50 is expressed as -log10 of concentration in moles per litre.

Asked: What pIC50 value was documented for this molecule, Cc1cccc(NC(=S)NNc2ncc(C(F)(F)F)cc2Cl)c1 ?
Given back: 4.69

Asked: What pIC50 value was documented for this molecule, CCCC(=O)OCCNc1cc(SCc2ccco2)c2nonc2c1[N+](=O)[O-] ?
Given back: 4.91

Asked: What pIC50 value was documented for this molecule, COc1ccc(-c2c(C(=O)c3ccccc3)[nH]c(N)c2C(=O)c2ccccc2)cc1OC ?
Given back: 4.55

Asked: What pIC50 value was documented for this molecule, COc1ccc(C[C@@H]2OC3(C=CC(=O)C=C3)O[C@H]2Cc2ccc(OC)cc2)cc1 ?
Given back: 5.25

Asked: What pIC50 value was documented for this molecule, COc1ccc(/C=C2/CCC(CN3CCOCC3)C2=O)cc1 (stereo not given) ?
Given back: 4.83

Asked: What pIC50 value was documented for this molecule, O=C(Nc1ccccc1Cl)/C(Cl)=C(\Cl)S(=O)c1ccccc1 (stereo not given) ?
Given back: 5.00

Asked: What pIC50 value was documented for this molecule, CCc1nc2c(OCCC3CCCCC3)cccn2c1N(C)C(=O)c1ccc(C)cc1 ?
Given back: 4.73

Asked: What pIC50 value was documented for this molecule, CC(C)c1ccc(O)c(NC(=S)NC(=O)c2cccnc2)c1 ?
Given back: 4.83

Asked: What pIC50 value was documented for this molecule, C[n+]1ccc(/C=N/Nc2nc(Cl)c(C#N)c(Cl)c2Cl)cc1 ?
Given back: 4.35

Asked: What pIC50 value was documented for this molecule, C=CC[C@H](CC(=O)N(CCO)Cc1ccccc1)C(=O)NC[C@H](OC(=O)[C@@H](CC=C)CC(=O)OC(C)(C)C)c1ccccc1 ?
Given back: 4.51
